- assay_method_text: UV absorption properties (λmax, molar extinction coefficient ε, efficiency E 1%, 1 cm)
- Type: physicochemical
- reported_conditions: Table 9
Classification field: rule met = E (1%, 1 cm) at or over 1000; rule not met = E (1%, 1 cm) under 1000.

Solved cases below.
compound="CC1(C)CCN(c2ccc(C(C)(C)C)cc2)C=C1C(=O)C(F)(F)F [drawing 139]" qualitative_label="rule met"
compound="COc1ccc(N2C=C(C(=O)C(F)(F)F)C(C)(C)CC2)cc1 [drawing 140]" qualitative_label="rule not met"

Q) Item Cc1ccc(N2C=C(C(=O)C(F)(F)F)C(C)(C)CC2)cc1 [drawing 142] with E (1%, 1 cm) of 1000 or above?
A) rule met

###

- assay_method_text: UV absorption properties (λmax, molar extinction coefficient ε, efficiency E 1%, 1 cm)
- Format: physicochemical
- reported_conditions: Table 3; in M-1 cm-1
Examples of compounds with documented ε follow.
The answer should be written as a number, with no unit following it.

compound="Cc1ccc(S(=O)(=O)NC(=O)C2=CN(C(C)(C)C)CCC2(C)C)cc1 [drawing 64]" measured_property=ε readout_number=34588
compound="CC1(C)CCN(C(C)(C)C)C=C1C(=O)NCCCCCCNC(=O)C1=CN(C(C)(C)C)CCC1(C)C [drawing 59]" measured_property=ε readout_number=31072
compound="CC1(C)CCN(C(C)(C)C)C=C1C(=S)Nc1ccccc1 [drawing 60]" measured_property=ε readout_number=20881
compound="CC1(C)CCN(C(C)(C)C)C=C1C(=O)Nc1ccc(Cc2ccc(NC(=O)C3=CN(C(C)(C)C)CCC3(C)C)cc2)cc1 [drawing 63]" measured_property=ε readout_number=64589

Q) Fill blank: measured ε of the compound CC1(C)CCN(C(C)(C)C)C=C1C(=O)Nc1ccc(NC(=O)C2=CN(C(C)(C)C)CCC2(C)C)cc1 [drawing 65] is ____.
A) 71962

Q) Fill blank: measured ε of the compound CC1(C)CCN(C(C)(C)C)C=C1C(=O)Nc1ccccc1 [drawing 57] is ____.
A) 34834

###

- assay_method_text: UV absorption properties (λmax, molar extinction coefficient ε, efficiency E 1%, 1 cm)
- Assay type: physicochemical
measured_property: UV λmax
# do not omit the unit; it follows the number

Recorded UV λmax, per entry:
structure=COc1ccc(N2C=C(C(=O)Cc3ccccc3)C(C)(C)CC2)cc1 result="334 nm"
structure=CC1(C)CCN(C(C)(C)C)C=C1C(=O)Nc1ccc(NC(=O)C2=CN(C(C)(C)C)CCC2(C)C)cc1 result="322 nm"

In the following, a different compound is considered.
Q) Fill blank: measured UV λmax of the compound C=C/C=C/C(=O)C1=CN(CC(C)C)CCC1(C)C is ____.
A) 352 nm

###

- assay_method_text: UV absorption properties (λmax, molar extinction coefficient ε, efficiency E 1%, 1 cm)
- Type: physicochemical
- reported_conditions: Table 7; values in order of the λmax values
Examples of compounds with documented ε follow.
Express your answer in M⁻¹ cm⁻¹, writing the number without its unit.

Q) Fill blank: measured ε of the compound CC(C)=CC(=O)C1=CN(CC(C)C)CCC1(C)C [drawing 107] is ____.
A) 19000

Q) Fill blank: measured ε of the compound C=CC(=O)C1=CN(CC(C)C)CCC1(C)C [drawing 112] is ____.
A) 20500

Q) Fill blank: measured ε of the compound C=C/C=C/CC(=O)C1=CN(CC(C)C)CCC1(C)C [drawing 109] is ____.
A) 27500

Q) Fill blank: measured ε of the compound C=C(C)C(=O)C1=CN(CC(C)C)CCC1(C)C [drawing 116] is ____.
A) 18950

Q) Fill blank: measured ε of the compound C=C(C)CC(=O)C1=CN(CC(C)C)CCC1(C)C [drawing 108] is ____.
A) 14500
